# experiment-description: Hemolytic activity in human RBC at 2 times IC50 relative to control
# Type: ADME, cell-based, Erythrocyte
# condition-description: red blood cells (erythrocytes), read-out: Activity
readout-name: hemolysis at 2 times IC50 (%)
State just the number; it will be interpreted in %.

Bench note: what hemolysis at 2 times IC50 did COc1cc(C2=NN(C(C)=O)C(c3ccc4ccccc4c3)C2)cc(OC)c1OC (configuration not stated) show?
1.5

Now turn to the next molecule.
Bench note: what hemolysis at 2 times IC50 did COc1cc(C2=NN(C(C)=O)C(c3ccc(Br)cc3)C2)cc(OC)c1OC (configuration not stated) show?
1.3

====

Attribute: hemolysis at 1 times IC50
# experiment-description: Hemolytic activity in human RBC at 1 time IC50 relative to control
# Type: ADME, cell-based, Erythrocyte
# condition-description: red blood cells (erythrocytes), read-out: Activity
State just the number; it will be interpreted in %.

Bench note: what hemolysis at 1 times IC50 did COc1cc(C2=NN(C(C)=O)C(c3ccc(Br)cc3)C2)cc(OC)c1OC (configuration not stated) show?
0.9

Now turn to the next compound.
Bench note: what hemolysis at 1 times IC50 did COc1cc(C2=NN(C(C)=O)C(c3ccc4ccccc4c3)C2)cc(OC)c1OC (configuration not stated) show?
1.9

====

# Test system: Jurkat
# experiment-description: Cytotoxicity against human Jurkat cells assessed as reduction in cell viability after 48 hrs by MTT assay
# Format: functional, cell-based
readout-name: IC50 (µM)
State just the number; it will be interpreted in µM.

Bench note: what IC50 did COc1cc(C2=NN(C(C)=O)C(c3ccc(Br)cc3)C2)cc(OC)c1OC (configuration not stated) show?
17.2

New cases:
Bench note: what IC50 did COc1cc(C2=NN(C(C)=O)C(c3ccc4ccccc4c3)C2)cc(OC)c1OC (configuration not stated) show?
27.7

====

# Tested on: Jurkat
# experiment-description: Cytotoxicity against human Jurkat cells assessed as reduction in cell viability after 24 hrs by MTT assay
# Type: functional, cell-based
readout-name: pIC50
Conceptually, pIC50 converts a concentration in mol/L into minus its log10.

Look up pIC50 with Jurkat for this molecule: COc1cc(C2=NN(C(C)=O)C(c3ccc(Br)cc3)C2)cc(OC)c1OC (configuration not stated)
4.51

Now turn to the next molecule.
Look up pIC50 with Jurkat for this molecule: COc1cc(C2=NN(C(C)=O)C(c3ccc4ccccc4c3)C2)cc(OC)c1OC (configuration not stated)
4.47

====

# experiment-description: Hemolytic activity in human RBC at 15 times IC50 relative to control
# Format: ADME, cell-based, Erythrocyte
# condition-description: red blood cells (erythrocytes), read-out: Activity
readout-name: hemolysis at 15 times IC50 (%)
State just the number; it will be interpreted in %.

Bench note: what hemolysis at 15 times IC50 did COc1cc(C2=NN(C(C)=O)C(c3ccc4ccccc4c3)C2)cc(OC)c1OC (configuration not stated) show?
6.4

New cases:
Bench note: what hemolysis at 15 times IC50 did COc1cc(C2=NN(C(C)=O)C(c3ccc(Br)cc3)C2)cc(OC)c1OC (configuration not stated) show?
15.8

====

Attribute: selectivity ratio at 24 h
# experiment-description: Selectivity index, ratio of IC50 for human PBMC to IC50 for mouse B16F10 cells after 24 hrs
# Type: toxicity
# condition-description: PBMC versus B16F10 cells, read-out: Ratio IC50
The reply should be a number, written without any unit.

Bench note: what selectivity ratio at 24 h did COc1cc(C2=NN(C(C)=O)C(c3ccc(Br)cc3)C2)cc(OC)c1OC (configuration not stated) show?
3.4

New cases:
Bench note: what selectivity ratio at 24 h did COc1cc(C2=NN(C(C)=O)C(c3ccc4ccccc4c3)C2)cc(OC)c1OC (configuration not stated) show?
6.9

====

Attribute: hemolysis at 3 times IC50
# experiment-description: Hemolytic activity in human RBC at 3 times IC50 relative to control
# Type: ADME, cell-based, Erythrocyte
# condition-description: red blood cells (erythrocytes), read-out: Activity
State just the number; it will be interpreted in %.

Bench note: what hemolysis at 3 times IC50 did COc1cc(C2=NN(C(C)=O)C(c3ccc4ccccc4c3)C2)cc(OC)c1OC (configuration not stated) show?
1.6

Now turn to the next molecule.
Bench note: what hemolysis at 3 times IC50 did COc1cc(C2=NN(C(C)=O)C(c3ccc(Br)cc3)C2)cc(OC)c1OC (configuration not stated) show?
1.6

====

# experiment-description: Hemolytic activity in human RBC at 9 times IC50 relative to control
# Type: ADME, cell-based, Erythrocyte
# condition-description: red blood cells (erythrocytes), read-out: Activity
readout-name: hemolysis at 9 times IC50 (%)
State just the number; it will be interpreted in %.

Bench note: what hemolysis at 9 times IC50 did COc1cc(C2=NN(C(C)=O)C(c3ccc(Br)cc3)C2)cc(OC)c1OC (configuration not stated) show?
6

Now turn to the next molecule.
Bench note: what hemolysis at 9 times IC50 did COc1cc(C2=NN(C(C)=O)C(c3ccc4ccccc4c3)C2)cc(OC)c1OC (configuration not stated) show?
2.4

====

# experiment-description: Hemolytic activity in human RBC at 12 times IC50 relative to control
# Type: ADME, cell-based, Erythrocyte
# condition-description: red blood cells (erythrocytes), read-out: Activity
readout-name: hemolysis at 12 times IC50

Bench note: what hemolysis at 12 times IC50 did COc1cc(C2=NN(C(C)=O)C(c3ccc(Br)cc3)C2)cc(OC)c1OC (configuration not stated) show?
12.9%

New cases:
Bench note: what hemolysis at 12 times IC50 did COc1cc(C2=NN(C(C)=O)C(c3ccc4ccccc4c3)C2)cc(OC)c1OC (configuration not stated) show?
3.2%
